Provide the reported GI50 of each item.

The reported HCT116 GI50 of O=C(CCCCCNC(=O)c1ccc(CNC(=O)OCc2cccs2)cc1)NO is 4.8 µM

The reported HCT116 GI50 of CC(=O)ONC(=O)c1ccc(CNC(=O)OCc2cccs2)cc1 is 7 µM

The reported HCT116 GI50 of O=C(Cc1csc(NC(=O)OCc2ccsc2)n1)NO is > 100 µM

The reported HCT116 GI50 of O=C(CSC(F)F)Nc1cccc(NC(=O)c2ccc(CNC(=O)OCc3cccs3)cc2)c1 is 100 µM

The reported HCT116 GI50 of O=C(NCc1ccc(C(=O)N2CCN(Cc3ccc4c(c3)OCO4)CC2)cc1)OCc1nccs1 is 7 µM

The reported HCT116 GI50 of O=C(CCCNC(=O)Cc1csc(NC(=O)OCc2cccnc2)n1)NO is > 100 µM

The reported HCT116 GI50 of O=C(Cc1csc(NC(=O)OCc2cccnc2)n1)Nc1nc2ccccc2s1 is > 100 µM

The reported HCT116 GI50 of COC(=O)ONC(=O)c1ccc(CNC(=O)OCc2cccs2)cc1 is > 100 µM

The reported HCT116 GI50 of O=C(CCCCCNC(=O)c1ccc(CNC(=O)OCc2cccs2)cc1)Nc1nnc(C2CC2)s1 is 40 µM

The reported HCT116 GI50 of CONC(=O)c1ccc(CNC(=O)OCc2c(F)c(F)c(F)c(F)c2F)cc1 is 21 µM

The reported HCT116 GI50 of O=C(NCc1ccc(C(=O)NO)cc1)OCc1cccs1 is 5 µM

The reported HCT116 GI50 of CN(C)C(=O)Cc1csc(NC(=O)OCc2cccnc2)n1 is > 100 µM

The reported HCT116 GI50 of O=C(NCc1ccc(C(=O)N2CCN(Cc3ccc4c(c3)OCO4)CC2)cc1)OCc1c(F)cc(F)cc1F is 3 µM

The reported HCT116 GI50 of Cc1ncsc1COC(=O)Nc1nc(CC(=O)NO)cs1 is > 100 µM

The reported HCT116 GI50 of CON(C)C(=O)c1ccc(CNC(=O)OCc2cccs2)cc1 is 4.3 µM

The reported HCT116 GI50 of CNC(=O)c1ccc(CNC(=O)OCc2cccs2)cc1 is 100 µM

The reported HCT116 GI50 of CN(O)C(=O)c1ccc(CNC(=O)OCc2cccs2)cc1 is 88 µM

The reported HCT116 GI50 of O=C(NCc1ccc(C(=O)N2CCC(N3CCCCC3)CC2)cc1)OCC1COc2ccccc2O1 (stereo not shown) is 65 µM

The reported HCT116 GI50 of O=C(Nc1nc(CC(=O)N2CCC(N3CCCCC3)CC2)cs1)OCc1cccnc1 is > 100 µM

The reported HCT116 GI50 of O=C(CCCCCNC(=O)Cc1csc(NC(=O)OCc2cccnc2)n1)NO is > 100 µM

The reported HCT116 GI50 of Nc1ccccc1NC(=O)Cc1csc(NC(=O)OCc2c(F)c(F)c(F)c(F)c2F)n1 is 53 µM

The reported HCT116 GI50 of CC(=O)ONC(=O)c1ccc(CNC(=O)OCc2nccs2)cc1 is 10 µM

The reported HCT116 GI50 of O=C(NCc1ccc(C(=O)Nc2nnc(C(F)(F)F)s2)cc1)OCc1nc2ccccc2s1 is 20 µM

The reported HCT116 GI50 of CC(=O)N(O)C(=O)Cc1csc(NC(=O)OCc2cccs2)n1 is > 100 µM

The reported HCT116 GI50 of CNC(=O)c1ccc(CNC(=O)OCc2nc3ccccc3[nH]2)cc1 is 58 µM

The reported HCT116 GI50 of O=C(CCCNC(=O)Cc1csc(NC(=O)OCc2c(F)c(F)c(F)c(F)c2F)n1)NO is > 100 µM

The reported HCT116 GI50 of Nc1cccc(NC(=O)c2ccc(CNC(=O)OCc3cccs3)cc2)c1 is 18 µM

The reported HCT116 GI50 of O=C(NCc1ccc(C(=O)N2CCOCC2)cc1)OCc1ccsc1 is > 100 µM
